Would you mind telling me the reported PBM binding z-score of each entry?
tested on: PPARg homodimer (NR concentration 180 nM); assay: PBM binding z-score (relative to random genomic background probes); higher = stronger binding; sequences stand for … in GC…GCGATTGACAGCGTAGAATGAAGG
Numbers only.

# annotated cases, reported PBM binding z-score shown
residue codes	PBM binding z-score
CCTGCTAGGTCAATTGTCAGCTAAAGCAGCTCGC	0.436
ACTAGCAGGCCAAGCGTCACTCAAGATTAGTCCG	-0.388
GATACAGGGTCAGATAGAGGCCAGAGTATGGAAA	2.7
ATCTCTAGGTAACCAAGTGCAGTGAATGCCGAAC	-0.00797

Provide PBM binding z-score values for the following items, in order.
1. AGAATGAAGTTAAGATCAGGGAAACAGAATACAT
2. TAGCCTAGGTCAGATCGGGCCAGTATACGCTATA
3. CGTCCAAGGTCAAAGGCCAGTGAAGAGATGACGG
4. GCGACTGGGGCAAAGCAGGTTGCCATAAGGTTGG

Response line:
-0.657
0.0641
3.37
-0.00419

---

system: THRa:RXRa (NR concentration 90 nM, RXRa partner concentration 90 nM); test: PBM binding z-score (relative to random genomic background probes); higher = stronger binding; sequences stand for … in GC…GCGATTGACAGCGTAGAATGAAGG
Threshold check on PBM binding z-score: at or above 3 gives TRUE, strictly below gives FALSE.

Consider the worked cases shown below.
residue codes	assigned class
AGAATCAGGTTAAGATCAGGGAAACAGAATACAT	FALSE
ATCGAAAGGTCGAAGGTGAGGATACCCACCCGAA	TRUE
CCTCGGAGGACAACAGGAGGTCAGAGGTGCCAGA	FALSE

Prompt line: Could you tell me if the measured PBM binding z-score of `TCTTGTAGATCAGCAGGTTAACAAAGCTGGCCAA` reaches 3 or more?
Response line: FALSE

Prompt line: Could you tell me if the measured PBM binding z-score of `TCTTGTAAATCAAGCAGGTTAAGAAAGCCTGAGT` reaches 3 or more?
Response line: FALSE

Prompt line: Could you tell me if the measured PBM binding z-score of `AGAACGAGGGGACGCTGAGTTGATAGCAGAGTAG` reaches 3 or more?
Response line: FALSE

Prompt line: Could you tell me if the measured PBM binding z-score of `ATACCAAGGTGATCGTGAGGTCGTTGACACTAAC` reaches 3 or more?
Response line: TRUE

Prompt line: Could you tell me if the measured PBM binding z-score of `CCGACTGGGGCAAAGGTTACAATACTCAGTACGA` reaches 3 or more?
Response line: FALSE

Prompt line: Could you tell me if the measured PBM binding z-score of `CCTTCTGGGCCAAAGGTCATTGATTCCAATGCTC` reaches 3 or more?
Response line: TRUE

Prompt line: Could you tell me if the measured PBM binding z-score of `ATCTCTAGGTAAAGTTGAGTGAAAGATCGATAGA` reaches 3 or more?
Response line: FALSE

Prompt line: Could you tell me if the measured PBM binding z-score of `TAGCCTAGGTCATTCGGCCAGTATAGTACGCATC` reaches 3 or more?
Response line: FALSE

---

tested on: RXRa DBDmut IVT, anti-RXR (DBD mutation: RXRa K156A/R161A, NR concentration 90 nM); assay: PBM binding z-score (relative to random genomic background probes); higher = stronger binding; sequences stand for … in GC…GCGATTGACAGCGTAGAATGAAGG
Threshold check on PBM binding z-score: at or above 0.6 gives TRUE, strictly below gives FALSE.

Consider the worked cases shown below.
residue codes	experimental system	assigned class
ACAGACAGGTGGGTGAAGGTAACTCAGCTGGACG	RXRa DBDmut IVT, anti-RXR (DBD mutation: RXRa K156A/R161A, NR concentration 90 nM)	FALSE
CGAACTATGTCATCCAGGACAGTGAATACATTGA	RXRa DBDmut IVT, anti-RXR (DBD mutation: RXRa K156A/R161A, NR concentration 90 nM)	FALSE
CCGACTGGGGCAGAAAGTTTACCATACCATCCGG	RXRa DBDmut IVT, anti-RXR (DBD mutation: RXRa K156A/R161A, NR concentration 90 nM)	FALSE
TAGCGTAGGTCATTCAGGGGCCAGTATAGAAAGC	RXRa DBDmut IVT, anti-RXR (DBD mutation: RXRa K156A/R161A, NR concentration 90 nM)	TRUE
TCATATAGGTTATACAGGTGAAAGTCGGCATCTA	RXRa DBDmut IVT, anti-RXR (DBD mutation: RXRa K156A/R161A, NR concentration 90 nM)	TRUE

Prompt line: Could you tell me if the measured PBM binding z-score of `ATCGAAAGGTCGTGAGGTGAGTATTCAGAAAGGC` reaches 0.6 or more?
Response line: TRUE

Prompt line: Could you tell me if the measured PBM binding z-score of `CTCGAGAGGTCGGTTGAGGTGAGTATACGGATAA` reaches 0.6 or more?
Response line: TRUE

Prompt line: Could you tell me if the measured PBM binding z-score of `TCTCGGAGGACTCGAAAGGTCAGAGCTCGACATC` reaches 0.6 or more?
Response line: FALSE

---

test system: FXR:RXRa (NR concentration 270 nM, RXRa partner concentration 90 nM); test: PBM binding z-score (relative to random genomic background probes); higher = stronger binding; sequences stand for … in GC…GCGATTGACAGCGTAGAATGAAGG
Threshold check on PBM binding z-score: at or above 5 gives class 1, strictly below gives class 0.

Consider the worked cases shown below.
residue codes	assigned class
AGAATGAGGTTATACGTAGAGCAGGGAAGAAAGT	class 0
TAGCCTAGGTCATGCGCGCCAGTATAGTGTCGGC	class 0
ATCGAAAGGTCGACGAGGTTAGTATACACCGTTT	class 0

Prompt line: Could you tell me if the measured PBM binding z-score of `CGTACAAGGTCAGCAGGTCAGTGAAAGCGACGTG` reaches 5 or more?
Response line: class 1

Prompt line: Could you tell me if the measured PBM binding z-score of `CATAAAGGGTCAGCTAGGCCAGAGTAGGGACGGC` reaches 5 or more?
Response line: class 1

---

tested on: THRa homodimer (NR concentration 90 nM); assay: PBM binding z-score (relative to random genomic background probes); higher = stronger binding; sequences stand for … in GC…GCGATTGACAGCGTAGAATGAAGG
Would you mind telling me the reported PBM binding z-score of each entry?
Give bare numbers.

# annotated cases, reported PBM binding z-score shown
residue codes	obs value
ACTAGTCGGTCAGCTGAGGTCACACACAATTCGG	5.28
CCTACTGGGCCAAAAAGGTCGTTGATGCCGATAA	-0.297
CGAACTAGGTCAGAAAAGGACAGTGAAGGATGAT	0.0421
CTCGAAAGGTCGGTTGAGGTGAGTATACGGATAA	1.33
GCTATTAGTTGAAAGTGCAACCGAATGATTCTCG	-0.293
ATCGTAAGGTCGAAGGTGAGTATACCCACCCGAA	1.59

Provide PBM binding z-score values for the following items, in order.
1. ATATGTAGGTTATCGGGTCAGTCAGTTTGCGCAT
2. GGACCGAGGGCATTCGAGTTGATAGCATGGCGAT
3. ATCGATAGGTCGAGGTGAGTATAGAGAAAGGGAA
4. TATACAGGGTTAAAGGCCAGAGTACGAATGTCGA

Response line:
1: 2.08; 2: -0.46; 3: 0.0105; 4: 0.124

Provide PBM binding z-score values for the following items, in order.
1. CTCGAAACGTCGTGCTCAGGTGAGTATACCAAAC
2. ATACCAAGGTGATCGTGAGGTCTTTGATACTAAC

Response line:
1: 0.555; 2: 1.65

Provide PBM binding z-score values for the following items, in order.
1. GCTGCTAGGTCAGGTTGGTCAGGTAACGGGTACG
2. AGAATGAGGTTAAGATCAGGGGAACAGAATACAT

Response line:
1. 2.02
2. 1.34

Provide PBM binding z-score values for the following items, in order.
1. ATCAAAAGGTCGTGAGGTGAGTATACAGAAAGGC
2. AGAATGAGGTTATTAAGATTAGGGAATTGCGGTC
3. CTCGAAAGGTCGGTTGAGGTGGGTATACGGATAA
4. CCTTACGGGTCACTGACCGGTTATAGCATTTGGA

Response line:
[1.89, 0.933, 0.422, 0.389]

Provide PBM binding z-score values for the following items, in order.
1. TCTTGTAGATCAATAAAGGTTAAGAAAGTGCGCT
2. ACTAGCGGGCCAAGGGTCACTCAAGATTAGTCCG
3. TCTTGTAGATCAAAGGTGAAGAAAGCCGAAGCCT
4. GCAGACAGGTGAAACGCAGATAACTCAGGGTGGC
5. CCTTGGAGGACAGAAGGTCAGAGCTGTCCGCTTT
6. AGAACGAGGGTACGCTGAGTTGATAGCAGAGTAG
7. CGTCCAAGGTCATAGGAGATCAGTGAAGACAGAT
8. TAGAGTAGGTTACCAATGGGGCATTCAGCTTTCT

Response line:
-0.219
-0.0687
-0.461
-0.589
0.0306
-0.484
2.46
-0.222

Prompt line: Specify PBM binding z-score for `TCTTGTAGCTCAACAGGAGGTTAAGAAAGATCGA` , system THRa homodimer (NR concentration 90 nM).
Response line: -1.06
